Target: T1, human PD-L1-his (human, UniProt Q9NZQ7 19-238)
T1 construct: also called hPD-L1-his; human His-PD-L1
T1 sequence (Q9NZQ7 19-238 limits assumed): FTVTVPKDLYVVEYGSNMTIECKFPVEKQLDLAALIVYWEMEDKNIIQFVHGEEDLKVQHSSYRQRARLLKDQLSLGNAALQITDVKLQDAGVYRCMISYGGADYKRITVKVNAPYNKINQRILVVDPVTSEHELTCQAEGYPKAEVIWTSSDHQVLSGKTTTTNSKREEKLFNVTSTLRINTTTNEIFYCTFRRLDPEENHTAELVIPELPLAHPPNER
Experiment: SPR, Biacore, full kinetics, antigen 100-1.5625 nM
measured_metric: Kd (nM)

Field: example entries. Status: answers known.
binder	measured_result
93-VH-8 (VHH, Humanized) VHH: EVQLVESGGGLVQPGGSLRLSCAASGRTFTFRHYVMGWFRQAPGKGLEFVAAISWSGSGSYYADSVKGRFTISRDNSKNTVYLQMNSLRAEDTAVYYCAADMTTRMSQASREYDYWGQGTLVTVSS	1.8
ALP-Tan-3p-93 (chimeric) (antibody, V domains shown, not shown: a dimerising Fc or GST; small tags and cut ends, Called chimeric; also called ALP-Tan-3p-93 chimeric antibody) VH: QVQLVESVGGLVQPGDSLRLSCLASGRTFTFRHYVMGWFRQAPGKEREFVAAISWSGSGSYYADSVKGRFTISRDNSKNMVFLQMNGLKPEDTAVYYCAADMTTRMSQASREYDYWGQGTQVTVSS	0.559
93-VH-5 (VHH, Humanized) VHH: EVQLVESGGGLVQPGGSLRLSCAASGFTFTFRHYVMGWFRQAPGKEREFVAAISWSGSGSYYADSVKGRFTISRDNSKNTLYLQMNSLRAEDTAVYYCAKDMTTRMSQASREYDYWGQGTLVTVSS	2.77

[I] 112-VHH7-PTM (VHH, Humanized) VHH: EVQLVESGGGLVQPGGSLRLSCAASGSIFSSGTQFSDSKIDWYRQAPGKQREWIAGIFSTGSTIYEDSVKGRFAISRDNAKNMLYLQMNSLRAEDTAVYYCRVIGRGILAWGQGTLVTVSS
[II] 93-VH-2 (VHH, Humanized) VHH: EVQLVESGGGLVQPGGSLRLSCAASGFTFTFRHYVMGWVRQAPGKEREWVSAISWSGSGSYYADSVKGRFTISRDNSKNTVYLQMNSLRAEDTAVYYCAADMTTRMSQASREYDYWGQGTLVTVSS
Out of I and II , name the one with the higher Kd. Give the chosen item's label as your response. II
